FYI, the data here is from the supplement of paper PMC11780869.

# System: Bacillus subtilis
# assay-explanation: cleaved RNA product abundance (RNA/gDNA barcode ratio) relative to median wild-type variant (ratio to wild type); higher = more accumulation of the downstream cleavage product
# recorded-conditions: experiment (reporter, strain, medium): exp 2b: truncated aprE reporter, strain BJT200; cleavage site: cggR-gapA (positions -7 to +36 mutated)
Lab note: compare cleaved RNA product abundance against 0.1. Equal or greater, write condition met. Smaller, write condition not met.

Item "ACAGACGAAGGAGCCGCAATGAAGTTATTAAGAGATGAATAATCCCTCAATATAAATATCTCTCACTTATTTAAA" with cleaved RNA product abundance of 0.1 or above?
condition met

Item "ACAGACGAAGGAGCCGCAAAGAAGTTACTAAGGGATGAATAATCGCTCAATATAAATATCTCTCACTTATTTAAA" with cleaved RNA product abundance of 0.1 or above?
condition not met

Item "ACAGACGAAGGAGCCGCAAAGAAGTGATTAAGTGATGAATAATCCCTCAATATAAATATCTCTCACTTATTTAAA" with cleaved RNA product abundance of 0.1 or above?
condition met

Item "ACAGACGAAGGAGCCGCAATGAAGTTATTAATGGATGAATAATCCCTCAATATAAATATCTCTCACTTATTTAAA" with cleaved RNA product abundance of 0.1 or above?
condition met

Item "ACAGACGAAGGAGCCGCAAAGAAGTTATGAAGGTATGAATAATCCCTCAATATAAATATCTCTCACTTATTTAAA" with cleaved RNA product abundance of 0.1 or above?
condition met
